# targetDesc: CB2 receptor (Homo sapiens, UniProt P34972)
# Construct: expressed in transfected cells
# Sequence (P34972 whole entry): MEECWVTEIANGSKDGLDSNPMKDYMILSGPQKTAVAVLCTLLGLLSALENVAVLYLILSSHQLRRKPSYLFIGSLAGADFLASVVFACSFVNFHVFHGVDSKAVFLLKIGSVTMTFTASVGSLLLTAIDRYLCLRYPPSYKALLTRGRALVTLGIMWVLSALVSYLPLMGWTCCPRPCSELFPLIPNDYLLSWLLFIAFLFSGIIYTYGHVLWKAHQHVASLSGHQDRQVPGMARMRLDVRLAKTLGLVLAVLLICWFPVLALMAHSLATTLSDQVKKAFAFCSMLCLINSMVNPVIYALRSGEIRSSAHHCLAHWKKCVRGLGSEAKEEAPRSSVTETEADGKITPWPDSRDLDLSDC
# assayProcedure: CB2 binding procedure, displacement of [3H]CP-55,940 from membranes of transfected CHO cells
# conditionSet: Table 6; read-out: CB2 KI
quantityMeasured: log10 of Ki (log10 of the value in nM)
Base-10 log of Ki, unit nM.

Would you please look over these solved cases?
{"molecule": "CCCCCCC(C)(C)c1cc(O)c(C2CCCC(C)(C)C2)c(O)c1 (stereo not drawn) [O-1871]", "log10 of Ki": -0.52}
{"molecule": "CCCCCCC(C)(C)c1cc(O)c(C2CCCC(C)C2)c(O)c1 (single isomer, unassigned; isomer a) [O-1797A]", "log10 of Ki": -0.36}
{"molecule": "CCCCCCC(C)(C)c1cc(O)c(C2CCCCCC2)c(O)c1 [O-1656]", "log10 of Ki": 0.33}
{"molecule": "CCCCCCC(C)(C)c1cc(O)c(C2C3CC4CC(C3)CC2C4)c(O)c1 (stereo not drawn) [O-1660]", "log10 of Ki": 0.50}
{"molecule": "CCCCCCC(C)(C)c1ccc(-c2cc(C)ccc2C(C)C)c(O)c1 [O-1376]", "log10 of Ki": 0.42}

Prompt line: Query: log10 of Ki; subject: CCCCCCC(C)(C)c1cc(OC)c(C2(O)CCC[C@@H](C)C2)c(OC)c1 (stereo in doubt) [compound 2137]
Response line: 1.04
